As shown below, each of these sequences has a reported shrunken log2 fold change value.
system: Escherichia coli TOP10; experiment: shrunken log2 fold change of peptide-encoding DNA abundance (4.5 h post-induction vs induction); higher = less antimicrobial activity (less host growth inhibition); conditions: time post-induction: 4.5 h; library: site-saturation at positions 5, 18, 19, 20
Enter the number alone.

Could you share which shrunken log2 fold change value was measured for "RRIRVRPPRLPRPRPRPLWEPRP" ?
0.203

Could you share which shrunken log2 fold change value was measured for "RRIRIRPPRLPRPRPRPAFLPRP" ?
-0.279

----------
test system: Escherichia coli TOP10; assay: shrunken log2 fold change of peptide-encoding DNA abundance (4.5 h post-induction vs induction); higher = less antimicrobial activity (less host growth inhibition); settings: time post-induction: 4.5 h; library: site-saturation at positions 5, 18, 19, 20
Output yes for shrunken log2 fold change not less than 0.02; output no otherwise.

{"biopolymer sequence": "RRIRCRPPRLPRPRPRPRGFPRP", "label class": "yes"}
{"biopolymer sequence": "RRIRFRPPRLPRPRPRPLYWPRP", "label class": "no"}
{"biopolymer sequence": "RRIRIRPPRLPRPRPRPTWHPRP", "label class": "no"}
{"biopolymer sequence": "RRIRVRPPRLPRPRPRPHKCPRP", "label class": "no"}
{"biopolymer sequence": "RRIRMRPPRLPRPRPRPRDLPRP", "label class": "yes"}

Then this sequence:
Could you verify whether the entry "RRIRRRPPRLPRPRPRPQILPRP" shows shrunken log2 fold change of no less than 0.02?
yes

----------
tested on: Escherichia coli TOP10; assay: shrunken log2 fold change of peptide-encoding DNA abundance (4.5 h post-induction vs induction); higher = less antimicrobial activity (less host growth inhibition); conditions: time post-induction: 4.5 h; library: site-saturation at positions 5, 18, 19, 20
Output MET for shrunken log2 fold change not less than -0.06; output NOT MET otherwise.

{"biopolymer sequence": "RRIRHRPPRLPRPRPRPELAPRP", "label class": "MET"}
{"biopolymer sequence": "RRIRHRPPRLPRPRPRPSQSPRP", "label class": "NOT MET"}
{"biopolymer sequence": "RRIRARPPRLPRPRPRPFKIPRP", "label class": "MET"}
{"biopolymer sequence": "RRIRVRPPRLPRPRPRPFNFPRP", "label class": "NOT MET"}
{"biopolymer sequence": "RRIRCRPPRLPRPRPRPGCVPRP", "label class": "MET"}

Could you verify whether the entry "RRIRPRPPRLPRPRPRPCDFPRP" shows shrunken log2 fold change of no less than -0.06?
NOT MET

Could you verify whether the entry "RRIRDRPPRLPRPRPRPCQCPRP" shows shrunken log2 fold change of no less than -0.06?
MET

Could you verify whether the entry "RRIRCRPPRLPRPRPRPKQDPRP" shows shrunken log2 fold change of no less than -0.06?
MET

----------
As shown below, each of these sequences has a reported shrunken log2 fold change value.
system: Escherichia coli TOP10; assay: shrunken log2 fold change of peptide-encoding DNA abundance (4.5 h post-induction vs induction); higher = less antimicrobial activity (less host growth inhibition); details: time post-induction: 4.5 h; library: site-saturation at positions 5, 18, 19, 20;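 further: peptides expressed intracellularly from a pBAD plasmid library in pooled LB shake-flask culture, induced with 0.3% L-arabinose, DNA abundance read by NGS, three biological replicates, DESeq2 with apeglm shrinkage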

Some sequences with known shrunken log2 fold change results, for comparison:
{"biopolymer sequence": "RRIRTRPPRLPRPRPRPSFVPRP", "test target": "Escherichia coli TOP10", "shrunken log2 fold change": -0.488}
{"biopolymer sequence": "RRIRIRPPRLPRPRPRPYFYPRP", "test target": "Escherichia coli TOP10", "shrunken log2 fold change": -0.469}
{"biopolymer sequence": "RRIRFRPPRLPRPRPRPSQNPRP", "test target": "Escherichia coli TOP10", "shrunken log2 fold change": -0.22}
{"biopolymer sequence": "RRIRYRPPRLPRPRPRPADKPRP", "test target": "Escherichia coli TOP10", "shrunken log2 fold change": -0.419}
{"biopolymer sequence": "RRIRCRPPRLPRPRPRPASMPRP", "test target": "Escherichia coli TOP10", "shrunken log2 fold change": -0.412}
{"biopolymer sequence": "RRIRWRPPRLPRPRPRPNDDPRP", "test target": "Escherichia coli TOP10", "shrunken log2 fold change": 0.0584}

Could you share which shrunken log2 fold change value was measured for "RRIRPRPPRLPRPRPRPTNFPRP" ?
0.221

Could you share which shrunken log2 fold change value was measured for "RRIRWRPPRLPRPRPRPKEHPRP" ?
0.126

Could you share which shrunken log2 fold change value was measured for "RRIRIRPPRLPRPRPRPWDEPRP" ?
-0.156

Could you share which shrunken log2 fold change value was measured for "RRIRPRPPRLPRPRPRPDDQPRP" ?
0.0917

Could you share which shrunken log2 fold change value was measured for "RRIRRRPPRLPRPRPRPAPFPRP" ?
0.863

Could you share which shrunken log2 fold change value was measured for "RRIRWRPPRLPRPRPRPWLVPRP" ?
-0.237

Could you share which shrunken log2 fold change value was measured for "RRIRYRPPRLPRPRPRPHTMPRP" ?
-0.604

Could you share which shrunken log2 fold change value was measured for "RRIRNRPPRLPRPRPRPVNVPRP" ?
-0.304

Could you share which shrunken log2 fold change value was measured for "RRIRFRPPRLPRPRPRPGIFPRP" ?
-0.218

Could you share which shrunken log2 fold change value was measured for "RRIRKRPPRLPRPRPRPWKLPRP" ?
-0.14

Could you share which shrunken log2 fold change value was measured for "RRIRPRPPRLPRPRPRPWVNPRP" ?
-0.11

Could you share which shrunken log2 fold change value was measured for "RRIRLRPPRLPRPRPRPEDDPRP" ?
0.0572

Could you share which shrunken log2 fold change value was measured for "RRIRYRPPRLPRPRPRPAPPPRP" ?
0.417

Could you share which shrunken log2 fold change value was measured for "RRIRRRPPRLPRPRPRPEDWPRP" ?
0.791

Could you share which shrunken log2 fold change value was measured for "RRIRWRPPRLPRPRPRPCCEPRP" ?
-0.00563

Could you share which shrunken log2 fold change value was measured for "RRIRMRPPRLPRPRPRPTKVPRP" ?
0.126

Could you share which shrunken log2 fold change value was measured for "RRIRPRPPRLPRPRPRPYIRPRP" ?
-0.297
